System: OV90
ASSAY_NOTES: Primary qHTS to identify gynecologic anti-cancer compounds using libraries of approved drugs and bioactive compounds (AID 1345084); note: nearly all actives have a fitted effect of over 55% in size; note: potency is the fitted concentration of half-maximal effect
STUDY_CONDITIONS: Gynecologic cancer cell panel viability, ATPlite luminescence, 48 h; series mostly up to 57.5 µM
Inconclusive results are not listed. The source made the active and inactive calls. Calls come from the whole dose curve; as a rule, active = well fitted cell-killing curve with a large enough effect; inconclusive = small, poorly fitted or top-dose-only effect, or effect the other way; inactive = flat fitted curve, though single readings scatter.
RESULT_TYPE: Potency

Task: Need Potency, item O=C(O)c1cn(-c2ccc(F)cc2)c2cc(N3CCNCC3)c(F)cc2c1=O
Result: inactive

Task: Need Potency, item CN(c1nccc(=O)[nH]1)C1CCN(c2nc3ccccc3n2Cc2ccc(F)cc2)CC1
Result: inactive

Task: Need Potency, item CCCS(=O)c1ccc2nc(NC(=O)OC)[nH]c2c1 (stereo unspecified)
Result: inactive

Task: Need Potency, item CCCCc1ccc2nc(NC(=O)OC)[nH]c2c1
Result: 1.58 µM (active)

Task: Need Potency, item CNC[C@H](O)c1ccc(O)c(O)c1
Result: inactive

Note: attention shifts to another entry.
Task: Need Potency, item O=C(OC1C[C@H]2CC[C@@H](C1)[N+]21CCCC1)C(O)(c1ccccc1)c1ccccc1 (stereo partly specified)
Result: inactive

* * *

ASSAY_NOTES: qHTS to identify inhibitors of the type 1 interferon - major histocompatibility complex class I in skeletal muscle: primary screen against the NCATS Pharmaceutical Collection (AID 1347407);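 note: luminescence of HiBiT knocked into endogenous HLA-B as interferon-induced MHC class I level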
STUDY_CONDITIONS: human skeletal muscle cells, IFN-b-induced MHC-I HiBiT luminescence, 24 h; series mostly up to 45.9 µM
Inconclusive results are not listed. The source made the active and inactive calls. Calls come from the whole dose curve; as a rule, active = well fitted inhibition curve with a large enough effect; inconclusive = small, poorly fitted or top-dose-only effect; inactive = flat fitted curve, though single readings scatter.
RESULT_TYPE: outcome

These recorded examples may help you get a feel for the data.
Task: Need outcome, item CN(C)C(=O)COC(=O)Cc1ccc(OC(=O)c2ccc(N=C(N)N)cc2)cc1
Result: inactive

Task: Need outcome, item O=C(NCCO[N+](=O)[O-])c1cccnc1
Result: inactive

Task: Need outcome, item Clc1ccc(C(Cn2ccnc2)OCc2c(Cl)cccc2Cl)c(Cl)c1 (stereo not drawn)
Result: inactive

Task: Need outcome, item Cc1cc(=O)c2c(O)c3c(O)cc(=O)c4c3c3c(cc(O)c1c23)C(C)(C)C=4O
Result: inactive

Task: Need outcome, item Cc1cccc(CN2CCN(C(c3ccccc3)c3ccc(Cl)cc3)CC2)c1 (stereo not drawn)
Result: inactive

Task: Need outcome, item NS(=O)(=O)c1cc(C(=O)O)c(NCc2ccco2)cc1Cl
Result: inactive

Task: Need outcome, item Nc1cccc2c1CN(C1CCC(=O)NC1=O)C2=O (stereo not drawn)
Result: inactive

Further cases:
Task: Need outcome, item O=C1CCc2ccc(OCCCCN3CCN(c4cccc(Cl)c4Cl)CC3)cc2N1
Result: inactive

* * *

System: DFO2036
ASSAY_NOTES: qHTS profiling for inhibitors of Plasmodium falciparum proliferation (AID 504749); note: nearly all actives have a fitted effect of over 60% in size
STUDY_CONDITIONS: P. falciparum in erythrocytes, SYBR Green DNA, 72 h; series mostly up to 28.7 µM
Results filed as inconclusive are left out. Activity calls are given as the source filed them. Calls follow the shape of the dose curve; as a rule, active = well fitted inhibition curve with a large enough effect; inconclusive = small, poorly fitted or top-dose-only effect; inactive = flat fitted curve, though single readings scatter.
I would appreciate it if you answered using one of these outcomes: active, inactive

// known answers, use as guide
Task: # fetch the recorded call for CCc1nc(N)nc(N)c1-c1ccc(Cl)cc1 here
Result: inactive

Task: # fetch the recorded call for COc1cc2c(cc1OC)C1CC(=O)C(CC(C)C)CN1CC2 (stereo unspecified) here
Result: inactive

Further cases:
Task: # fetch the recorded call for CC1=C(C)C(=O)C(C(CCCCCC(=O)O)c2ccccc2)=C(C)C1=O (stereo unspecified) here
Result: inactive

Task: # fetch the recorded call for CC1(C)NC(=O)N(c2ccc([N+](=O)[O-])c(C(F)(F)F)c2)C1=O here
Result: inactive

Task: # fetch the recorded call for O=C(O)c1cccc(-c2noc(-c3ccccc3F)n2)c1 here
Result: inactive

Task: # fetch the recorded call for CNC[C@@H](O)[C@@H](O)[C@H](O)[C@H](O)CO here
Result: inactive

Task: # fetch the recorded call for Cc1cc(=O)c2c(O)c3c(O)cc(=O)c4c3c3c(cc(O)c1c23)C(C)(C)C=4O here
Result: active

* * *

ASSAY_NOTES: qHTS of pediatric cancer cell lines to identify multiple opportunities for drug repurposing: Confirmatory screen for SJ-GBM2 cells (AID 1347116);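 note: 48 hour compound exposure; nearly all actives have a fitted effect of over 60% in size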
STUDY_CONDITIONS: SJ-GBM2 glioblastoma cells, viability; series mostly up to 45.9 µM
Results filed as inconclusive are left out. Activity calls are given as the source filed them. Calls come from the whole dose curve; as a rule, active = well fitted cell-killing curve with a large enough effect; inconclusive = small, poorly fitted or top-dose-only effect, or effect the other way; inactive = no such curve, though single readings can be large or run the other way.
I would appreciate it if you answered using one of these outcomes: 1 (yes) = active, 0 (no) = inactive

Task: # fetch the recorded call for Cc1c(C(=O)NN2CCCCC2)nn(-c2ccc(Cl)cc2Cl)c1-c1ccc(Cl)cc1 here
Result: 0 (no)

Task: # fetch the recorded call for CCN(CC)C(=S)SSC(=S)N(CC)CC here
Result: 1 (yes)

Task: # fetch the recorded call for Nc1ccn([C@@H]2O[C@H](CO)[C@@H](O)C2O)c(=O)n1 (stereo not given in full) here
Result: 0 (no)

Task: # fetch the recorded call for Oc1ccc(-c2nc(-c3ccc(F)cc3)c(-c3ccncc3)[nH]2)cc1 here
Result: 1 (yes)

Task: # fetch the recorded call for Cc1cc(C2CCCCC2)n(O)c(=O)c1 here
Result: 0 (no)

Task: # fetch the recorded call for Cc1ccc(NC(=O)c2ccc(CN3CCN(C)CC3)cc2)cc1Nc1nccc(-c2cccnc2)n1 here
Result: 0 (no)

Task: # fetch the recorded call for CCCCc1ccc2nc(NC(=O)OC)[nH]c2c1 here
Result: 1 (yes)

Task: # fetch the recorded call for COc1cc(C(C)=O)ccc1OCCCN1CCC(c2noc3cc(F)ccc23)CC1 here
Result: 0 (no)

Task: # fetch the recorded call for CCCOc1ccc2nc(NC(=O)OC)[nH]c2c1 here
Result: 1 (yes)

Task: # fetch the recorded call for C[C@]12CCC(=O)C=C1CC[C@@H]1[C@H]2[C@@H](O)C[C@@]2(C)[C@H]1CC[C@]2(O)C(=O)CO here
Result: 0 (no)

* * *

System: CP335
ASSAY_NOTES: qHTS profiling for inhibitors of Plasmodium falciparum proliferation (AID 504749); note: nearly all actives have a fitted effect of over 60% in size
STUDY_CONDITIONS: P. falciparum in erythrocytes, SYBR Green DNA, 72 h; series mostly up to 28.7 µM
Records with an inconclusive call do not appear. The source made the active and inactive calls. The call rests on the fitted dose curve; in most records, active means well fitted inhibition curve with a large enough effect; inconclusive means small, poorly fitted or top-dose-only effect; inactive means flat fitted curve, though single readings scatter.
I would appreciate it if you answered using one of these outcomes: y = active, n = inactive

// known answers, use as guide
Task: # fetch the recorded call for CCCOc1ccc2nc(NC(=O)OC)[nH]c2c1 here
Result: n

Task: # fetch the recorded call for CCN(CC)CCOc1ccc(Cc2ccccc2)cc1 here
Result: n

Further cases:
Task: # fetch the recorded call for CCN(CCO)CCCC(C)Nc1ccnc2cc(Cl)ccc12 (stereo not given) here
Result: n

Task: # fetch the recorded call for Cc1ncc([N+](=O)[O-])n1CC(C)O (stereo not given) here
Result: n

Task: # fetch the recorded call for O=c1oc2cc(O)ccc2s1 here
Result: n

Task: # fetch the recorded call for Oc1ccc(OCc2ccccc2)cc1 here
Result: n

Task: # fetch the recorded call for N=C(N=C(N)N)N1CCOCC1 here
Result: n

Task: # fetch the recorded call for CCOC(=O)c1c(C)n(C)c2ccc(O)cc12 here
Result: n

Task: # fetch the recorded call for c1ccc2[nH]c(-c3cscn3)nc2c1 here
Result: n

Task: # fetch the recorded call for Cn1c(NCCN(CCO)CCCc2ccc([N+](=O)[O-])cc2)cc(=O)n(C)c1=O here
Result: n

Task: # fetch the recorded call for CC(C)(S)[C@@H](N)C(=O)O here
Result: n

Task: # fetch the recorded call for Nc1cc(C(Cl)=C(Cl)Cl)c(S(N)(=O)=O)cc1S(N)(=O)=O here
Result: n

Task: # fetch the recorded call for Cc1ccc(C)c(OCCCC(C)(C)C(=O)O)c1 here
Result: n

Task: # fetch the recorded call for CCCCc1ccc2nc(NC(=O)OC)[nH]c2c1 here
Result: n

* * *

ASSAYED_TARGET: Arylsulfatase A (Homo sapiens) (UniProt P15289)
Sequence (P15289 whole entry, looked up): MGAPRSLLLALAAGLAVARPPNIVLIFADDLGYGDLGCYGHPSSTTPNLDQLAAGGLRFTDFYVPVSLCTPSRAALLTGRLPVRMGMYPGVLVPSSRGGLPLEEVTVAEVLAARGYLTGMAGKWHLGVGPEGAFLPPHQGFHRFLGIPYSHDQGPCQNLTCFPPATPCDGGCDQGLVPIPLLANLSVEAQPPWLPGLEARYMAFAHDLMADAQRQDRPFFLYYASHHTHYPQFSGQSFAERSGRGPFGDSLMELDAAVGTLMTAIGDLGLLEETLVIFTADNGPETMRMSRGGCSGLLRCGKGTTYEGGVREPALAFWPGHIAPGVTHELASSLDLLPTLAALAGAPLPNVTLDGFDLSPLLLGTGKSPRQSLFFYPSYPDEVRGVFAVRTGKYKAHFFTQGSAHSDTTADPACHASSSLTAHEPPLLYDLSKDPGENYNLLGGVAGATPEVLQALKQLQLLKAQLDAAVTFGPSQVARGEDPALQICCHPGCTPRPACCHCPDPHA
ASSAY_NOTES: qHTS screen for enhancers of Arylsulfatase A (ASA1): LOPAC Validation Assay (AID 720538)
STUDY_CONDITIONS: ASA enzyme activity, LOPAC qHTS enhancer assay; series mostly up to 57.5 µM
Results filed as inconclusive are left out. Active and inactive are the calls of the source. Calls come from the whole dose curve; as a rule, active = well fitted activation curve with a large enough effect; inconclusive = small, poorly fitted or top-dose-only effect; inactive = no such curve, though single readings can be large or run the other way.
I would appreciate it if you answered using one of these outcomes: active, inactive

// known answers, use as guide
Task: # fetch the recorded call for CC1(C)C(=O)N(CCN2CCC(C(=O)c3ccc(F)cc3)CC2)c2ccccc21 here
Result: inactive

Task: # fetch the recorded call for CCOC(=O)C(C)Oc1cccc2c(=O)n(CC(=O)Nc3ccc4c(c3)OCCO4)ccc12 (stereo not given) here
Result: inactive

Task: # fetch the recorded call for O=Nc1c(-c2c(O)[nH]c3cc(Br)ccc23)[nH]c2ccccc12 here
Result: active

Task: # fetch the recorded call for CC(=O)N1CCN(c2ccc(OC[C@H]3CO[C@](Cn4ccnc4)(c4ccc(Cl)cc4Cl)O3)cc2)CC1 here
Result: inactive

Task: # fetch the recorded call for CC(C)c1ccc2c(c1)c(SC(C)(C)C)c(CC(C)(C)C(=O)O)n2Cc1ccc(Cl)cc1 here
Result: inactive

Further cases:
Task: # fetch the recorded call for OC(CN1CCN(c2cccc(Cl)c2)CC1)C(c1ccccc1)c1ccccc1 (stereo not given) here
Result: inactive

Task: # fetch the recorded call for C[C@@H](N)C1CCC(C(=O)Nc2ccncc2)CC1 (stereo not given in full) here
Result: inactive

Task: # fetch the recorded call for O=c1cc(N2CCOCC2)oc2c(-c3ccccc3)cccc12 here
Result: inactive

Task: # fetch the recorded call for Nc1ccn([C@@H]2O[C@H](CO)[C@@H](O)C2O)c(=O)n1 (stereo not given in full) here
Result: inactive

Task: # fetch the recorded call for Oc1ccc(-c2nc(-c3ccc(F)cc3)c(-c3ccncc3)[nH]2)cc1 here
Result: inactive
